Data origin, for the record: patent US20090280138A1

- target_desc: T1, MHC class I molecule HLA-A*0201 (iTopia plate-bound monomer) (biotin (bound to streptavidin-coated plate))
- T1 construct: also called A2
- assay_summary: iTopia off-rate assay, 37 C; fit R^2 0.9
Each item that follows carries a reported t½ half life.
# number only, unit h dropped from output

Some binders with recorded t½ half life:
VLPAGAFAR (also called Peptide No 53) [5T4 9-mer peptide 53 VLPAGAFAR]    2.2
LLAGRALQG (also called Peptide No 102) [5T4 9-mer peptide 102 LLAGRALQG]    1.4
LSGSRLDEV (also called Peptide No 63) [5T4 9-mer peptide 63 LSGSRLDEV]    0.5

[ask] Value lookup for t½ half life; key = LALIGAIFL (also called Peptide No 182) [5T4 9-mer peptide 182 LALIGAIFL]
[reply] 3.2
